# IC50 (µg/mL), neutralization of pseudovirus per entry
molecular target: HIV-1 Env of isolate MGRM-G-016 (subtype G), on pseudovirus (HIV-1); test: cell-based or functional assay
measure: IC50 (µg/mL), neutralization of pseudovirus

[[record]]
binder = "PGT-136 (antibody, V domains shown) VH: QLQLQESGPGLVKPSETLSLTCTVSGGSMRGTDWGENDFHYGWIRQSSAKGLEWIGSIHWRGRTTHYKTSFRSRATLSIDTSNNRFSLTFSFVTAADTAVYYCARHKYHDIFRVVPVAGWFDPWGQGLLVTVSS VL: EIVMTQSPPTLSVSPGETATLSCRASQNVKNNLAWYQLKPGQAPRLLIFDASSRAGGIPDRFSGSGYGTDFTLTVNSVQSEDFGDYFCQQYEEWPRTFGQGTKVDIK"
value = "> 50 µg/mL"

[[record]]
binder = "PGT-126 (antibody, V domains shown) VH: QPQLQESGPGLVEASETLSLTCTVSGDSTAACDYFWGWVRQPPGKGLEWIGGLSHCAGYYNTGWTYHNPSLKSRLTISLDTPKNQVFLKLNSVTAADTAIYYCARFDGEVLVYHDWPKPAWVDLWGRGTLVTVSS VL: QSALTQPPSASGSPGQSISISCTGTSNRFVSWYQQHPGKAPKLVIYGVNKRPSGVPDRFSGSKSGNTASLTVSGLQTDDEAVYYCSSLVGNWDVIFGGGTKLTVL"
value = "> 50 µg/mL"

[[record]]
binder = "PGT-123 (antibody, V domains shown) VH: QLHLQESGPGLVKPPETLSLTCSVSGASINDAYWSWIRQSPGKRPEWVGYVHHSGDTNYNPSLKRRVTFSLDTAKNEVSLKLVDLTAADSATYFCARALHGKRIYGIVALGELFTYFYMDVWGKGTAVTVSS VL: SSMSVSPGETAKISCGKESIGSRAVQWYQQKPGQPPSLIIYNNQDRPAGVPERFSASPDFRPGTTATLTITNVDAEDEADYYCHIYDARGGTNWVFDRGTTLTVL"
value = "> 50 µg/mL"

[[record]]
binder = "PGT-128 (antibody, V domains shown) VH: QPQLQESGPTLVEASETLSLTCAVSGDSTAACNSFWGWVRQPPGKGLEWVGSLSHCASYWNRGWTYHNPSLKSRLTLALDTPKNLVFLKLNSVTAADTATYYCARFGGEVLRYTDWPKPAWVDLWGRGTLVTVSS VL: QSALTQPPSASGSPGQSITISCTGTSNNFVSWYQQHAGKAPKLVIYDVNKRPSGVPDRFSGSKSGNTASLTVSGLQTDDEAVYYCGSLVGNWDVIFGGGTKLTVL"
value = "> 50 µg/mL"

[[record]]
binder = "PGT-131 (antibody, V domains shown) VH: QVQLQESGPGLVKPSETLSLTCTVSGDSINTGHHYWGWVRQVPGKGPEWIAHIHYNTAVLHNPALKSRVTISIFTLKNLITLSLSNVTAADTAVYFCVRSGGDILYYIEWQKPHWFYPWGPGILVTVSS VL: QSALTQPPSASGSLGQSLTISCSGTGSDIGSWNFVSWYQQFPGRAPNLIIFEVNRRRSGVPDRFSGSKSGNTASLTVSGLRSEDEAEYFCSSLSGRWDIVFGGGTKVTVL"
value = "> 50 µg/mL"

